B1: Hairpin Ribozyme (parent)
chain: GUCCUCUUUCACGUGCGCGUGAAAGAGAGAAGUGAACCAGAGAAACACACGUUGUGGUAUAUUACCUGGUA

- Variants of: B1
- assayNotes: self-cleavage, relative activity (ratio to wild type); higher = more cleavage; co-transcriptional
readout: self-cleavage
Kindly provide the number alone.

mutationCode	self-cleavage
U5A G17C	0.204
C10U G27U	0.225
C50A U60A	0.388
C16G A22U	0.691
A26U C65G	0.111
G68U U70A	0.269

stdin: Which value of self-cleavage has been reported for C3G A28C in the records?
stdout: 0.541

stdin: Would you mind doing A24G G25C as well?
stdout: 0.668

stdin: And A39U U67C ?
stdout: 0.286

stdin: U55C U60C ?
stdout: 0.4
